Test system: Rattus norvegicus
Assay: Bioavailability in fasted Sprague-Dawley rat assessed as urinary excretion of phosphoric acid at 10 to 50 mg/kg, po after 24 hrs by HPLC relative to iv dosed phosphoric acid
Type: ADME, organism-based, Urine
Settings: in vivo
PROPERTY_MEASURED: F (%)
The response must be a number in % with no trailing unit.

// returns reported F for input `CCOC(=O)C(C)(C)NP(=O)(NC(C)(C)C(=O)OCC)c1ccc(-c2nc(N)sc2SC)o1`
45

// returns reported F for input `CCOC(=O)c1sc(N)nc1-c1ccc(P(=O)(NC2(C(=O)OCC)CCCC2)NC2(C(=O)OCC)CCCC2)o1`
5

// returns reported F for input `CC(C)Cc1sc(N)nc1-c1ccc(P(=O)(N[C@@H](C)C(=O)OC(C)C)N[C@@H](C)C(=O)OC(C)C)o1`
31

// returns reported F for input `CCCSc1sc(N)nc1-c1ccc(P(=O)(N[C@@H](C)C(=O)OC(C)(C)C)N[C@@H](C)C(=O)OC(C)(C)C)o1`
4

// returns reported F for input `CCCSc1sc(N)nc1-c1ccc(P(=O)(NC2(C(=O)OCC)CCCC2)NC2(C(=O)OCC)CCCC2)o1`
49

// returns reported F for input `CCOC(=O)C1(NP(=O)(NC2(C(=O)OCC)CCCC2)c2ccc(-c3nc(N)sc3CC(C)C)o2)CCCC1`
27

// returns reported F for input `CCCSc1sc(N)nc1-c1ccc(P(=O)(N[C@@H](C)C(=O)OC2CCCCCC2)N[C@@H](C)C(=O)OC2CCCCCC2)o1`
12

// returns reported F for input `CC(C)Cc1sc(N)nc1-c1ccc(P(=O)(NCC(=O)OCc2ccccc2)NCC(=O)OCc2ccccc2)o1`
17

// returns reported F for input `CCCOC(=O)[C@H](C)NP(=O)(N[C@@H](C)C(=O)OCCC)c1ccc(-c2nc(N)sc2SCCC)o1`
19

// returns reported F for input `CC(C)Cc1sc(N)nc1-c1ccc(P(=O)(N[C@@H](C)C(=O)OCc2ccccc2)N[C@@H](C)C(=O)OCc2ccccc2)o1`
11

// returns reported F for input `CC(C)OC(=O)[C@H](C)NP(=O)(N[C@@H](C)C(=O)OC(C)C)c1ccc(-c2nc(N)sc2-c2ccccc2)o1`
23

// returns reported F for input `CC(C)COC(=O)[C@H](C)NP(=O)(N[C@@H](C)C(=O)OCC(C)C)c1ccc(-c2nc(N)sc2CC(C)C)o1`
10

// returns reported F for input `CCOC(=O)[C@H](CC(C)C)NP(=O)(N[C@@H](CC(C)C)C(=O)OCC)c1ccc(-c2nc(N)sc2CC(C)C)o1`
3

// returns reported F for input `CCOC(=O)C(C)(C)NP(=O)(COCCn1cnc2c(N)ncnc21)NC(C)(C)C(=O)OCC`
4

// returns reported F for input `CCCSc1sc(N)nc1-c1ccc(P(=O)(N[C@@H](CCC)C(=O)OCC)N[C@@H](CCC)C(=O)OCC)o1`
6

// returns reported F for input `CCOC(=O)c1sc(N)nc1-c1ccc(P(=O)(N[C@H](C(=O)OCC)C(C)C)N[C@H](C(=O)OCC)C(C)C)o1`
6
